Catalogue of Ragweed plant response rating values
Test system: ragweed
Test: Test C postemergence
Type: in vivo, Ambrosia elatior
Settings: 31 g ai/ha, postemergence; visual rating, scale 0 to 100 (0 no effect, 100 complete control), 13 to 15 days
Output spec: single numeric token, no unit.

Example cases with answers are listed next.
1) FC(F)c1cnn(-c2c(Br)cccc2Oc2ncc(Cl)cn2)c1; 35
2) Cc1cnc(Oc2cccc(C#N)c2-n2cc(C(F)(F)F)cn2)nc1; 65
3) Clc1cnc(Oc2ccccc2-n2cc(C3CC3)nn2)nc1; 45

Record summary for Clc1cnc(Oc2cccc(Br)c2-n2cc(Cl)cn2)nc1 : reported Ragweed plant response rating = 5

Kindly note the recorded Ragweed plant response rating for FC(F)(F)c1cnn(-c2c(Br)cccc2Oc2ncc(Cl)cn2)c1 , which is 20

Summary for this compound, N#Cc1cnn(-c2c(C#N)cccc2Oc2ncc(Cl)cn2)c1 : Ragweed plant response rating is 25

Entry Fc1cnc(Oc2cccc(C(F)F)c2-n2cc(C(F)(F)F)cn2)nc1 ; Ragweed plant response rating = 15

Looking up N#Cc1cnn(-c2c(Oc3ncc(F)cn3)cccc2C(F)F)c1 , I see its Ragweed plant response rating listed as 40

###

System: ragweed
Experiment: Test A preemergence
Assay type: in vivo, Ambrosia elatior
Details: 125 g ai/ha
Readout: Ragweed plant response rating (0 to 100 scale)
Please respond with just the number, no unit label.

1. Fc1cccc(Oc2ncc(Cl)cn2)c1-n1cc(OC(F)F)cn1; 20
2. FCc1cccc(Oc2ncc(Cl)cn2)c1-n1cc(I)cn1; 0
3. Cc1cn(-c2c(C#N)cccc2Oc2ncc(Cl)cn2)cn1; 0
4. FCc1cccc(Oc2ncc(Br)cn2)c1-n1cc(Cl)cn1; 30
5. FC(F)(F)Sc1cnn(-c2ccccc2Oc2ncc(Br)cn2)c1; 0
6. Fc1cnc(Oc2ccccc2-n2cc(SC(F)(F)F)cn2)nc1; 0

Would you kindly look at the next entry?
Query O=Cc1cn(-c2ccccc2Oc2ncc(Cl)cn2)nn1 yields Ragweed plant response rating (0 to 100 scale) of 0

###

Tested on: pigweed
Assay: Test A postemergence
Assay type: in vivo, Amaranthus retroflexus
Details: 31 g ai/ha, 0 to 100 scale, 0 no effect, 100 complete control
Listed compounds paired with reported Plant response rating, Pigweed
Answer using only a numeral; do not append any unit.

1. N#Cc1cnn(-c2c(CF)cccc2Oc2ncc(Br)cn2)c1; 10
2. FC(F)(F)COc1cnn(-c2c(Cl)cccc2Oc2ncc(Cl)cn2)c1; 100
3. FCc1cccc(Oc2ncc(Cl)cn2)c1-n1cc(I)cn1; 0
4. CCCOc1cnn(-c2c(F)cccc2Oc2ncc(Cl)cn2)c1; 20
5. FC(F)Oc1cnn(-c2c(Br)cccc2Oc2ncc(Cl)cn2)c1; 70

The recorded Plant response rating, Pigweed for FCc1cccc(Oc2ncc(F)cn2)c1-n1cc(Cl)cn1 is 60

Looking up Fc1cnc(Oc2cccc(Cl)c2-n2cc(OC(F)F)cn2)nc1 , I found its Plant response rating, Pigweed recorded as 90

###

Test system: pigweed
Assay: Test A preemergence
Type: in vivo, Amaranthus retroflexus
Conditions: 31 g ai/ha, 0 to 100 scale where 0 is no effect and 100 is complete control, visual, approximately 10 days
Readout: Plant response rating, Pigweed
Answer as a number with no unit attached.

# compound Cc1cc(C(F)(F)F)nn1-c1ccccc1Oc1ncc(Cl)cn1 [Compound 266] ; its Plant response rating, Pigweed = 0

Documented Plant response rating, Pigweed of N#Cc1cnn(-c2c(Br)cccc2Oc2ncc(Cl)cn2)c1 [Compound 140] : 90

# Plant response rating, Pigweed of N#Cc1cnn(-c2c(CF)cccc2Oc2ncc(Br)cn2)c1 [Compound 243] = 0

# Plant response rating, Pigweed (compound: FC(F)(F)Sc1cnn(-c2ccccc2Oc2ncc(Br)cn2)c1 [Compound 246] ) is 0

Per the records, this compound ( FCc1cccc(Oc2ncc(Br)cn2)c1-n1cc(I)cn1 [Compound 244] ) has Plant response rating, Pigweed equal to 0

Entry source: patent US9695155B2
